target_entity: D(3) dopamine receptor (Homo sapiens) (UniProt P35462)
Sequence (P35462 whole entry, looked up): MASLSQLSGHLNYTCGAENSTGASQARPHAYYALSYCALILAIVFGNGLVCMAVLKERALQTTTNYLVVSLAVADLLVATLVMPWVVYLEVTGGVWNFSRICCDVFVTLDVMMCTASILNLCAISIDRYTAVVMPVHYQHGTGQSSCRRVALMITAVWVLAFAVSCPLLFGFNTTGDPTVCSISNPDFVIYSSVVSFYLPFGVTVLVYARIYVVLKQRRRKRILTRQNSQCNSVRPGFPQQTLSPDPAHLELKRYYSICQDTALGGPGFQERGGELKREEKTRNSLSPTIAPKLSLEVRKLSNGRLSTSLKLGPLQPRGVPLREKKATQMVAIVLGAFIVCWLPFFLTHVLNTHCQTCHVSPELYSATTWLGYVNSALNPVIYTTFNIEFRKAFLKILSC
protocol_notes: qHTS of D3 Dopamine Receptor Antagonist: qHTS
stated_conditions: D3R cells, DiscoveRx beta-arrestin luminescence, antagonist mode
Screen size: about 360,000 compounds; about 9,100 (2.5%) were called active. About 4% were inconclusive and are not listed. Cut-off read from the data, not from the text of the source: active = max response below about -50%; inconclusive = no clear call, values can overlap the other calls; inactive = above that. For the sample, actives were picked, then their nearest neighbours and some compounds at random.
Entry note: the call must match one of Y = active, N = inactive

Use the examples below as a reference point.
>>> class_name("O=C(NCCCN1CCN(c2ccc(F)cc2)CC1)Nc1ccc([N+](=O)[O-])cc1")
"Y"
>>> class_name("CCOC(=O)c1cc(-c2sc(NC(=O)c3ccccc3)nc2C)n(-c2ccc(Br)cc2)n1")
"N"
>>> class_name("CC1(C(=O)NCc2ccccc2)CSCC(=O)N1CCCN1CCOCC1 (configuration not stated)")
"N"
>>> class_name("O=C(OCc1cn([C@@H]2C[C@H](c3ccc(Cl)cc3)N(Cc3cccs3)C[C@H]2O)nn1)c1ccccc1")
"N"
>>> class_name("CCCc1nc2c3ccccc3ccn2c1Cc1ccccc1C(F)(F)F")
"N"
>>> class_name("CN1OC[C@@H]2CN(C(=O)c3cccc4ccccc34)[C@H](c3ccc(N4CCCCC4)cc3)C[C@@H]21")
"N"
>>> class_name("CCOc1cc(CNn2c(C)nnc2SCC(=O)NC(C)(C)C)ccc1OCC(=O)NC(C)(C)C")
"N"
>>> class_name("COc1ccc(C(CNC(=O)CSc2ccccc2)N2CCOCC2)cc1 (configuration not stated)")
"N"
>>> class_name("COc1ccc(NC(=O)C2Cc3c(-c4cccc(NC(C)=O)c4)ccnc3O2)cc1OC (configuration not stated)")
"N"
>>> class_name("C[C@H](O)[C@@H]1C(=O)N2CCc3c([nH]c4ccccc34)[C@@H]2C[C@@H]1N(C)C(=O)Nc1ccc(F)cc1")
"N"

Problem: Write down the call the test reported for this compound. Item: Cc1ccc([C@H]2C[C@H](O)[C@@H](n3cc(COC(=O)c4ccccc4)nn3)CN2CC2CCCCC2)cc1
Result: N

Problem: I would be grateful if you could indicate the recorded call for CCCOc1ccc(F)cc1-c1cc(C(=O)NCc2ccc(F)cc2)[nH]n1 .
Result: N
